Property: Kd; scope: individual molecules
TESTED TARGET: BfCASDH (Bacteroides fragilis)
Sequence (I9VY56 1-397): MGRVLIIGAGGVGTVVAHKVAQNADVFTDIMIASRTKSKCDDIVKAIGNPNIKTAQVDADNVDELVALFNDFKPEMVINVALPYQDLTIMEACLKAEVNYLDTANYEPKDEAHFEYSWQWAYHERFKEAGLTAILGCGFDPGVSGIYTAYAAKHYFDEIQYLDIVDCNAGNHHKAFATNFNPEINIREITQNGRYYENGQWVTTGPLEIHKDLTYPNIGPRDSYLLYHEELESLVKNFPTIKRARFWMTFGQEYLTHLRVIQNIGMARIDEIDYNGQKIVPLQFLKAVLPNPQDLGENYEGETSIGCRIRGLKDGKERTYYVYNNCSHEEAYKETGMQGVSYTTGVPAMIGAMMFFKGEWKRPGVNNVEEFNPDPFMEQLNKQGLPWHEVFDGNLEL
OBSERVATION TYPE: Kd

>>> result_value("NCCCN [DAP]")
"15 mM"
>>> result_value("NCCCCN [putrescine]")
"11 mM"

Data origin: paper PMC10413350
